test system: UACC-257 melanoma; assay: NCI-60 one-dose screen, 48 h (100 = growth as untreated, 0 = no growth, -100 = all killed); conditions: 10 µM
This is part of a sample that, as a whole, favours compounds with a hit. Of some 83,000 tested, about 20% had one in any assay.
Rule: growth of 80% or more gives true; anything lower gives false.

{"smiles-str": "CC(=O)O[C@]1(C)CC[C@H]2[C@H](CNCCc3ccc(Cl)cc3)C(=O)O[C@@H]2C2=C(C)C(=O)C[C@H]21", "cat": "false"}
{"smiles-str": "Cc1cc(O)c(C(C)(C)C)cc1Sc1cc(C(C)(C)C)c(O)cc1C", "cat": "false"}
{"smiles-str": "CN1CCCNc2c(c(=O)c2=O)NCCCN(C)CCCNc2c(c(=O)c2=O)NCCCN(C)CCCNc2c(c(=O)c2=O)NCCCN(C)CCCNc2c(c(=O)c2=O)NCCCN(C)CCCNc2c(c(=O)c2=O)NCCCN(C)CCCNc2c(c(=O)c2=O)NCCCN(C)CCCNc2c(c(=O)c2=O)NCCC1", "cat": "false"}
{"smiles-str": "O=c1[nH]c2ccc(Cl)cc2c2ccccc12", "cat": "true"}
{"smiles-str": "CSc1cc(SC)ncn1", "cat": "true"}
{"smiles-str": "COc1cc2cc3c(nc2cc1OC)CCN3Cc1ccc(NC(=O)Nc2ccc(F)cc2F)cc1", "cat": "false"}

====

system: SK-MEL-5 melanoma; test: NCI-60 one-dose screen, 48 h (100 = growth as untreated, 0 = no growth, -100 = all killed); details: 10 µM
The panel holds about 83,000 compounds, 20% with a hit somewhere; the sample as a whole holds those more often.
quantity-kind: growth (%)

{"compound": "CNc1ncc(-c2ccc(C(F)(F)F)cc2)c(NC2CCCCCC2)n1", "reading": 74.8}
{"compound": "COc1ccc(-c2nc3ccccn3c2-c2nnc(-c3cc(OC)c(OC)c(OC)c3)o2)cc1", "reading": 44.7}
{"compound": "Cc1cs/c(=N\\NC(=O)c2cc(-c3cc4ccccc4o3)nn2-c2ccccc2)n1-c1ccccc1", "reading": 42.5}
{"compound": "COc1ccc2c(c1)C(=O)c1c-2c(OCCN(C)C)nc2cc(OC)c(OC)cc12", "reading": 89.7}
{"compound": "Cc1ccc(C(=O)Nc2cccc(F)c2)cc1NC(=O)C1(c2ncnc3[nH]ccc23)CC1", "reading": 74.3}
{"compound": "CC/C(=C(/c1ccc(OCCN(C)C)cc1)c1ccc(OC(=O)CCC(=O)c2c(C)[nH]c(/C=C3\\N=C(c4ccc[nH]4)C=C3OC)c2C)cc1)c1ccccc1", "reading": 2.36}
{"compound": "COc1cc(-c2cc(/C=C3\\C(=O)Nc4ccccc43)[nH]n2)cc(OC)c1OC", "reading": -57}
{"compound": "CCCCCCCCCCCCCC[n+]1ccc(C(N)=O)cc1", "reading": -82.8}
{"compound": "CCN1CCC(CCOC)(CN2c3ccccc3Sc3ccc(Cl)cc32)C1 (centres undefined)", "reading": -49.1}
{"compound": "COc1ccc(/C=C2/CN(CCC#N)C/C(=C\\c3ccc(OC)cc3)C2=O)cc1", "reading": -0.858}
{"compound": "COc1cc(Cl)cc(-c2nn(-c3cccc(NC(=O)Nc4ccc(Cl)c(C(F)(F)F)c4)c3)cc2-c2ccncc2)c1", "reading": -71.2}
{"compound": "COc1ccc(-c2nn(-c3cccc(NC(=O)c4ccc(Cl)c(Cl)c4)c3)cc2-c2ccncc2)cc1Cl", "reading": 78.8}
{"compound": "COc1ccc(OC)c(NC(=O)c2sc3nc4c(cc3c2N)C(=O)CCC4)c1", "reading": 66}
{"compound": "COc1cc(-c2cc(-c3cc4c([nH]c5ccccc54)c(-c4cc(OC)c(OC)c(OC)c4)n3)cc(-c3ccccc3)n2)cc(OC)c1OC", "reading": 40.1}
{"compound": "COc1cc(/C=C/C(=O)c2ccc(Cl)cc2)ccc1OS(=O)(=O)c1ccc(C)cc1", "reading": 100}
{"compound": "CCCCCCCC(C)NCCO (centres undefined)", "reading": 101}
{"compound": "Fc1ccc2nc(-c3nc(-c4ccccc4)n4ccccc34)[nH]c2c1", "reading": 4}
{"compound": "Cc1ccc(C(=O)N2C/C(=C/c3ccc(F)cc3)C(=O)/C(=C/c3ccc(F)cc3)C2)cc1", "reading": 94.6}
{"compound": "COC(=O)C1=NNC(=S)N(c2cc(C)[nH]n2)C(=O)C1", "reading": 101}

====

test system: OVCAR-3 ovarian; assay: NCI-60 one-dose screen, 48 h (100 = growth as untreated, 0 = no growth, -100 = all killed); conditions: 10 µM
This is part of a sample that, as a whole, favours compounds with a hit. Of some 83,000 tested, about 20% had one in any assay.
Each record here notes measured growth.

{"compound": "CCN1CCCC1CNC(=O)c1ncc(-c2ccc(C(F)(F)F)cc2)c(NC2CCCCCC2)n1 (stereo not given)", "value-units": "%", "growth": 79.5}
{"compound": "CCN(CC)CCCC(C)Nc1ccc2ccc(Cl)cc2n1 (stereo not given)", "value-units": "%", "growth": 97.8}
{"compound": "COc1ccc(-c2nc3sccn3c2-c2nc3c([nH]2)C(=O)c2ccccc2C3=O)cc1", "value-units": "%", "growth": 114}
{"compound": "COc1ccc(S(=O)(=O)NCCCNc2nccc(-c3c(-c4ccc(F)cc4)nc4sccn34)n2)cc1", "value-units": "%", "growth": 74.9}
{"compound": "Cc1ccc(C)c(C(O)(c2cc(C)ccc2C)C2(O)CCCCC2)c1", "value-units": "%", "growth": 93.6}
{"compound": "O=C(CC(NC(=O)OCc1ccccc1)C(=O)OCc1ccccc1)OCc1ccccc1 (stereo not given)", "value-units": "%", "growth": 110}
{"compound": "COc1cc(/C(=C2/O[C@@H]([C@H]3COC(C)(C)O3)[C@H]3OC(C)(C)O[C@@H]23)c2ccc3ccccc3c2)cc(OC)c1OC", "value-units": "%", "growth": -6.76}
{"compound": "O=C(Nc1ccc(CO)cc1)c1ccccc1Nc1ccnc(C(F)(F)F)c1", "value-units": "%", "growth": 110}
{"compound": "CCCCOc1ccc(NC(=O)Nc2nnc(C)s2)cc1", "value-units": "%", "growth": 120}
{"compound": "Nc1nc(-c2ccccc2Cl)cc(-c2ccc(Cl)cc2Cl)n1", "value-units": "%", "growth": 85.2}

====

test system: SN12C renal; test: NCI-60 one-dose screen, 48 h (100 = growth as untreated, 0 = no growth, -100 = all killed); conditions: 10 µM
About 83,000 compounds went through this panel and 20% of them were active in at least one assay; those are over-represented in the sample as a whole. Calls of active or inactive are those of the source. Rule for the calls: active = growth percent below 10; inactive = the rest.
The following compounds are shown together with reported growth values.

{"compound": "C=C(Cl)[C@@](Cl)(CBr)CC[C@@H](Br)C(C)(C)Cl", "growth": "72% (inactive)"}
{"compound": "COc1cc(Cl)cc(-c2nn(-c3cccc(NC(=O)Nc4cc(C(F)(F)F)cc(C(F)(F)F)c4)c3)cc2-c2ccncc2)c1", "growth": "9.32% (active)"}
{"compound": "O=C(C[n+]1ccccc1)c1ccc2ccccc2c1", "growth": "93.8% (inactive)"}
{"compound": "COc1ccc(NC(=O)Cc2nc3nc4sc(C)c(C)c4c(=O)n3[nH]2)cc1", "growth": "106% (inactive)"}
{"compound": "O=C1/C(=C/c2ccc(Cl)cc2)SC(=Nc2ccc(Cl)cc2)N1Cc1nc2ccccc2[nH]1", "growth": "79.3% (inactive)"}
{"compound": "COc1ccc(-c2nn(-c3cccc(NC(=O)c4ccc(Cl)c(Cl)c4)c3)cc2-c2ccncc2)cc1Cl", "growth": "86.7% (inactive)"}
{"compound": "COc1cc(-c2cc(/C=C/C(=O)c3ccc(F)c(F)c3)[nH]n2)cc(OC)c1OC", "growth": "39.2% (inactive)"}
{"compound": "O=C(Nc1cccc(Br)c1)c1cc(=O)[nH]c2ccccc12", "growth": "99.7% (inactive)"}
{"compound": "COc1cc(OC)cc(-c2cncn2-c2ccc(-c3nc4cc(OC)cc(OC)c4s3)cc2)c1", "growth": "80.4% (inactive)"}
{"compound": "CCCCCCN1C(=O)C2=C(c3ccc(Cl)cc3)Nc3c(c(C)nn3-c3ccccc3)C2c2ccccc21 (stereo not given)", "growth": "91.2% (inactive)"}
{"compound": "O=C1ON=[N+](c2ccc(Cc3ccc([N+]4=NOC(=O)C4CN4CCOCC4)cc3)cc2)C1CN1CCOCC1 (stereo not given)", "growth": "80.3% (inactive)"}
{"compound": "O=C(N/N=C/c1ccccc1O)C(O)(c1ccccc1)c1ccccc1", "growth": "66.3% (inactive)"}
{"compound": "Cc1ccc(CC#N)cc1C", "growth": "105% (inactive)"}
{"compound": "COc1cc(Nc2ccnc(NCCCNc3ccnc4cc(Cl)ccc34)n2)cc(OC)c1", "growth": "22.6% (inactive)"}
{"compound": "Cc1cccc(Cl)c1NC(=O)c1ccc2nc(NC(=O)NC3CCN(C)CC3)sc2c1", "growth": "73.8% (inactive)"}
{"compound": "CC(C)(C)c1cc(Br)cc(C(C)(C)C)c1O", "growth": "96.5% (inactive)"}
{"compound": "CC1(C)OC2=C(CC1Br)C(=O)C(=O)c1ccccc12 (stereo not given)", "growth": "-75.4% (active)"}
{"compound": "COc1ccc(-c2cc(-c3cccc(NS(C)(=O)=O)c3)nc(N)c2C#N)cc1", "growth": "43.3% (inactive)"}
{"compound": "COc1ccc(/C(=C2\\O[C@@H]([C@H]3COC(C)(C)O3)[C@H]3OC(C)(C)O[C@@H]23)c2cc(OC)c(OC)c(OC)c2)cc1O", "growth": "57.7% (inactive)"}
{"compound": "CC(=O)C1CCC2C3CC(F)C4=CC(=O)CCC4(C)C3C(O)CC12C (stereo not given)", "growth": "92% (inactive)"}
